biological target: Cyclin-dependent kinase 4/cyclin D1 (Homo sapiens, UniProt P11802); assay: Inhibition of human CDK4/ Cyclin D1 catalytic subunit expressed in Sf9 insect cells assessed as GST-RB152 fusion protein phosphorylation-associated depletion in ATP level by luminescence assay
Sequence (P11802 whole entry, the tested form may be a part): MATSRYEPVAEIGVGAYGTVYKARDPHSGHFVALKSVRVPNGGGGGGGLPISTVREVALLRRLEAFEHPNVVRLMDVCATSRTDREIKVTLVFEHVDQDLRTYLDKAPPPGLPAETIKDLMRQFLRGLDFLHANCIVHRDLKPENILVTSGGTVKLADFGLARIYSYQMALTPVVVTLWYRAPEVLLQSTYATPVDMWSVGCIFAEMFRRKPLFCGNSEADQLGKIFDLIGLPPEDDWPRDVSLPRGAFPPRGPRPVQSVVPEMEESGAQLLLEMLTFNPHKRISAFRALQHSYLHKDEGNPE
Sequence (P24385 whole entry, further chain, the tested form may be a part): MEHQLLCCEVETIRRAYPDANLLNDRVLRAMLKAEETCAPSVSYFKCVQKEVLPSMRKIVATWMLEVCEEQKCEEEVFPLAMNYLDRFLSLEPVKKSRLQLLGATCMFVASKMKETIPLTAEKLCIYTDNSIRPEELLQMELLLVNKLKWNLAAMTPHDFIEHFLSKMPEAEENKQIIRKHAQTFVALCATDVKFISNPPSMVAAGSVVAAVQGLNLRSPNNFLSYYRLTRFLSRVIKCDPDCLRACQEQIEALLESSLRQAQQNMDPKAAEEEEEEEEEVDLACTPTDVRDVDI
Parameter IC50: see the listing below.
Write it as a number; the unit µM goes unstated.

Record excerpt, results attached:
1. O=C(C(=O)N1CCc2ccccc21)c1c[nH]c2ccccc12 :: 122
2. c1ccc2c(c1)CCN2CCN1CCc2ccccc21 :: 66
3. Cc1ccc2c(c1)CCN2C(=O)C(=O)c1c[nH]c2ccccc12 :: 54
4. Clc1ccc2c(ccn2CCc2c[nH]c3ccccc23)c1 :: 140

Response field IC50 (Cyclin-dependent kinase 4/cyclin D1 (Homo sapiens, UniProt P11802)) for item O=C(C(=O)N1CCc2cc(F)ccc21)c1c[nH]c2ccccc12 : 136

The compound c1ccc2c(c1)ccn2CCCCn1ccc2ccccc21 on Cyclin-dependent kinase 4/cyclin D1 (Homo sapiens, UniProt P11802): IC50 was 45

The measured IC50 that Fc1ccc2[nH]cc(CCn3ccc4ccccc43)c2c1 showed for Cyclin-dependent kinase 4/cyclin D1 (Homo sapiens, UniProt P11802) is 50

====

biological target: Cyclin-dependent kinase 2 (Homo sapiens); test: Inhibition of human CDK2/ Cyclin A catalytic subunit expressed in Sf9 insect cells assessed as histone H1 phosphorylation-associated depletion in ATP level by luminescence assay; conditions: read-out: IC50
Quick reference for IC50 among some compounds
State just the number; it will be interpreted in µM.

1) c1ccc2c(c1)CCN2CCN1CCc2ccccc21 :: 1230
2) Cc1ccc2c(c1)CCN2C(=O)C(=O)c1c[nH]c2ccc(C)cc12 :: 710
3) O=C(C(=O)N1CCc2cc(F)ccc21)c1c[nH]c2ccc(F)cc12 :: 816
4) c1ccc2c(c1)ccn2CCn1ccc2ccccc21 :: 940
5) Cc1ccc2c(c1)CCN2C(=O)C(=O)c1c[nH]c2ccccc12 :: 910

Looking up O=C(C(=O)N1CCc2cc(Cl)ccc21)c1c[nH]c2ccccc12 , I see its IC50 listed as 1030

Per the records, this compound ( c1ccc2c(c1)ccn2CCCn1ccc2ccccc21 ) has IC50 equal to 1070

Summary for this compound, Clc1ccc2c(ccn2CCc2c[nH]c3ccc(Cl)cc23)c1 : IC50 is 862

Record summary for Fc1ccc2c(ccn2CCc2c[nH]c3ccc(F)cc23)c1 : reported IC50 = 895

Just so you know, measured IC50 for c1ccc2c(c1)ccn2CCCCCn1ccc2ccccc21 came out at 950

====

molecular target: Cyclin-dependent kinase 4/cyclin D1 (Homo sapiens); assay: Inhibition of human CDK4/ Cyclin D1 catalytic subunit expressed in Sf9 insect cells assessed as GST-RB152 fusion protein phosphorylation-associated depletion in ATP level by luminescence assay
ENDPOINT NAME: pIC50
Reminder that pIC50 is minus the log10 of a molar concentration.

Use these answered entries as a reference point.
1) c1ccc2c(c1)ccn2CCCCCn1ccc2ccccc21 :: 4.28
2) Cc1ccc2c(c1)CCN2C(=O)C(=O)c1c[nH]c2ccc(C)cc12 :: 4.42
3) Clc1ccc2c(ccn2CCc2c[nH]c3ccc(Cl)cc23)c1 :: 4.42
4) O=C(C(=O)N1CCc2ccccc21)c1c[nH]c2ccc(F)cc12 :: 3.94
5) O=C(C(=O)N1CCc2cc(F)ccc21)c1c[nH]c2ccc(F)cc12 :: 4.32

Moving on to another compound below.
Sample Cc1ccc2c(ccn2CCc2c[nH]c3ccccc23)c1 ; pIC50 observed: 3.89

====

Listed here: items and their measured pIC50.
molecular target: UniProt:P24941; assay: Inhibition of human CDK2/ Cyclin A catalytic subunit expressed in Sf9 insect cells assessed as histone H1 phosphorylation-associated depletion in ATP level by luminescence assay; settings: read-out: IC50
pIC50: −log10 of the molar value.

1. Fc1ccc2c(ccn2CCc2c[nH]c3ccccc23)c1 :: < 3.30
2. c1ccc2c(c1)ccn2CCc1c[nH]c2ccccc12 :: < 3.30

Here is the next item to consider.
Query Clc1ccc2[nH]cc(CCn3ccc4ccccc43)c2c1 on UniProt:P24941; pIC50 returned: < 3.30
